// data source = patent US20080287398A1

Target or system: canine TRPM8 (Canis lupus familiaris)
Construct: expressed in transfected cells
Protocol notes: In vitro canine TRPM8 functional assay (Ca2+-sensitive dye, FLIPR/FDSS, icilin activation)
Assay type: cell-based
Measurement conditions: HEK293 cells expressing canine TRPM8, icilin activation; eight-point dose-response; read-out: IC50
Criterion: IC50 strictly under 100 nM. Met: class 1. Not met: class 0.

>  <Compound>
CCOP(=O)(OCC)C(Cc1ccccc1Cl)c1cc2ccccc2s1 (centres unmarked) [Cpd 85]

>  <Label value>
class 0

$$$$
>  <Compound>
CC(C)OP(=O)(OC(C)C)C(Cc1cccc(F)c1F)c1sc2ccccc2c1Br (centres unmarked) [Cpd 194]

>  <Label value>
class 1

$$$$
>  <Compound>
CC(C)OP(=O)(OC(C)C)C(Cc1cccc(C(F)(F)F)c1)c1cc2ccccc2s1 (centres unmarked) [Cpd 69]

>  <Label value>
class 0

$$$$
>  <Compound>
CCOP(=O)(OCC)C(Cc1cccc(F)c1F)c1sc2ccccc2c1C (centres unmarked) [Cpd 10]

>  <Label value>
class 1

$$$$
>  <Compound>
CCOP(=O)(OCC)C(Cc1ccccc1Cl)c1sc2ccccc2c1Br (racemic) [Cpd 147]

>  <Label value>
class 0

$$$$

====

Target or system: canine TRPM8 (Canis lupus familiaris)
Construct: expressed in transfected cells
Protocol notes: In vitro canine TRPM8 functional assay (Ca2+-sensitive dye, FLIPR/FDSS, icilin activation)
Type: cell-based
Measurement conditions: IC50 (μM), HEK293 cells expressing canine TRPM8, icilin activation; eight-point dose-response
Description: The functional activity of compounds of Formula (I) was determined by measuring changes in intracellular calcium concentration using a Ca^2+-sensitive fluorescent dye. The changes in fluorescent signal were monitored by a fluorescence plate reader, either a FLIPR™ (Molecular Devices) or FDSS (Hamamatsu). […] Basal FI was subtracted prior to normalizing data to percent of maximal response. […] Finally, the EC50 and IC50 values were calculated with the best-fit dose curve determined by GraphPad Prism.
Item-by-item account of IC50

>  <Molecule>
CCOP(=O)(Cc1cc2ccccc2s1)OCc1ccccc1F (stereo not drawn)

>  <Target or system>
canine TRPM8 (Canis lupus familiaris)

>  <IC50 / µM>
1.47

$$$$
>  <Molecule>
CCOP(=O)(OCC)C(Cc1ccc(F)cc1)c1sc2ccccc2c1Br (stereo not drawn)

>  <Target or system>
canine TRPM8 (Canis lupus familiaris)

>  <IC50 / µM>
0.044

$$$$
>  <Molecule>
CCOP(=O)(OCC)C(Cc1ccc(Cl)c(Cl)c1)c1cc2ccccc2s1 (stereo not drawn)

>  <Target or system>
canine TRPM8 (Canis lupus familiaris)

>  <IC50 / µM>
0.43

$$$$
>  <Molecule>
CCOP(=O)(OCC)C(Cc1ccc(F)c(F)c1)c1sc2cccc(C(F)(F)F)c2c1C (stereo not drawn)

>  <Target or system>
canine TRPM8 (Canis lupus familiaris)

>  <IC50 / µM>
0.46

$$$$
>  <Molecule>
CCOP(=O)(OCC)C(Cc1ccc(Cl)c(Cl)c1)c1sc2ccccc2c1-c1ccccc1 (stereo not drawn)

>  <Target or system>
canine TRPM8 (Canis lupus familiaris)

>  <IC50 / µM>
0.3

$$$$
>  <Molecule>
CCOP(=O)(OCC)C(Cc1ccc(F)c(F)c1)c1sc2ccccc2c1-c1ccccc1 (stereo not drawn)

>  <Target or system>
canine TRPM8 (Canis lupus familiaris)

>  <IC50 / µM>
0.08

$$$$
>  <Molecule>
CCOP(=O)(OCC)C(Cc1ccc(F)c(F)c1)c1sc2ccccc2c1-c1ccc(F)nc1 (stereo not drawn)

>  <Target or system>
canine TRPM8 (Canis lupus familiaris)

>  <IC50 / µM>
0.11

$$$$
>  <Molecule>
CCOP(=O)(OCC)C(Cc1cccc(N)c1)c1sc2ccccc2c1Br (stereo not drawn)

>  <Target or system>
canine TRPM8 (Canis lupus familiaris)

>  <IC50 / µM>
0.211

$$$$
>  <Molecule>
CCOP(=O)(OCC)C(Cc1cccc(-c2ccccc2)c1)c1sc2ccccc2c1C (stereo not drawn)

>  <Target or system>
canine TRPM8 (Canis lupus familiaris)

>  <IC50 / µM>
0.41

$$$$
>  <Molecule>
CCOP(=O)(OCC)C(Cc1ccc(F)c(F)c1)c1sc2c(F)cccc2c1C (stereo not drawn)

>  <Target or system>
canine TRPM8 (Canis lupus familiaris)

>  <IC50 / µM>
0.037

$$$$
>  <Molecule>
CCOP(=O)(OCC)C(Cc1ccc(F)c(F)c1)c1sc2ncccc2c1Br (stereo not drawn)

>  <Target or system>
canine TRPM8 (Canis lupus familiaris)

>  <IC50 / µM>
0.11

$$$$
>  <Molecule>
CCOP(=O)(OCC)C(Cc1ccc(F)c(F)c1)c1sc2ccc(F)cc2c1C (stereo not drawn)

>  <Target or system>
canine TRPM8 (Canis lupus familiaris)

>  <IC50 / µM>
0.164

$$$$
>  <Molecule>
CCOP(=O)(OCC)C(Cc1ccc(F)c(O)c1)c1sc2ccccc2c1Br (stereo not drawn)

>  <Target or system>
canine TRPM8 (Canis lupus familiaris)

>  <IC50 / µM>
0.027

$$$$
>  <Molecule>
CCOP(=O)(OCC)C(Cc1cccc([N+](=O)[O-])c1)c1sc2ccccc2c1Br (stereo not drawn)

>  <Target or system>
canine TRPM8 (Canis lupus familiaris)

>  <IC50 / µM>
0.041

$$$$
>  <Molecule>
CCOP(=O)(OCC)C(Cc1ccc(Cl)c(Cl)c1)c1sc2ccccc2c1Br (stereo not drawn)

>  <Target or system>
canine TRPM8 (Canis lupus familiaris)

>  <IC50 / µM>
0.107

$$$$
>  <Molecule>
CCOP(=O)(OCC)C(Cc1ccc(F)c(F)c1)c1sc2ccccc2c1-c1cccnc1F (stereo not drawn)

>  <Target or system>
canine TRPM8 (Canis lupus familiaris)

>  <IC50 / µM>
0.02

$$$$
>  <Molecule>
CCOP(=O)(OCC)C(Cc1cccc(Cl)c1)c1sc2ccccc2c1Br (stereo not drawn)

>  <Target or system>
canine TRPM8 (Canis lupus familiaris)

>  <IC50 / µM>
0.024

$$$$
>  <Molecule>
CCOP(=O)(Cc1cc2ccccc2s1)OCc1c(Cl)cccc1Cl (stereo not drawn)

>  <Target or system>
canine TRPM8 (Canis lupus familiaris)

>  <IC50 / µM>
0.6

$$$$

====

Target or system: human TRPM8 (Homo sapiens, UniProt Q7Z2W7)
Construct: the full-length cDNAs encoding human and rat TRPM8 were subcloned
Sequence (Q7Z2W7 whole entry): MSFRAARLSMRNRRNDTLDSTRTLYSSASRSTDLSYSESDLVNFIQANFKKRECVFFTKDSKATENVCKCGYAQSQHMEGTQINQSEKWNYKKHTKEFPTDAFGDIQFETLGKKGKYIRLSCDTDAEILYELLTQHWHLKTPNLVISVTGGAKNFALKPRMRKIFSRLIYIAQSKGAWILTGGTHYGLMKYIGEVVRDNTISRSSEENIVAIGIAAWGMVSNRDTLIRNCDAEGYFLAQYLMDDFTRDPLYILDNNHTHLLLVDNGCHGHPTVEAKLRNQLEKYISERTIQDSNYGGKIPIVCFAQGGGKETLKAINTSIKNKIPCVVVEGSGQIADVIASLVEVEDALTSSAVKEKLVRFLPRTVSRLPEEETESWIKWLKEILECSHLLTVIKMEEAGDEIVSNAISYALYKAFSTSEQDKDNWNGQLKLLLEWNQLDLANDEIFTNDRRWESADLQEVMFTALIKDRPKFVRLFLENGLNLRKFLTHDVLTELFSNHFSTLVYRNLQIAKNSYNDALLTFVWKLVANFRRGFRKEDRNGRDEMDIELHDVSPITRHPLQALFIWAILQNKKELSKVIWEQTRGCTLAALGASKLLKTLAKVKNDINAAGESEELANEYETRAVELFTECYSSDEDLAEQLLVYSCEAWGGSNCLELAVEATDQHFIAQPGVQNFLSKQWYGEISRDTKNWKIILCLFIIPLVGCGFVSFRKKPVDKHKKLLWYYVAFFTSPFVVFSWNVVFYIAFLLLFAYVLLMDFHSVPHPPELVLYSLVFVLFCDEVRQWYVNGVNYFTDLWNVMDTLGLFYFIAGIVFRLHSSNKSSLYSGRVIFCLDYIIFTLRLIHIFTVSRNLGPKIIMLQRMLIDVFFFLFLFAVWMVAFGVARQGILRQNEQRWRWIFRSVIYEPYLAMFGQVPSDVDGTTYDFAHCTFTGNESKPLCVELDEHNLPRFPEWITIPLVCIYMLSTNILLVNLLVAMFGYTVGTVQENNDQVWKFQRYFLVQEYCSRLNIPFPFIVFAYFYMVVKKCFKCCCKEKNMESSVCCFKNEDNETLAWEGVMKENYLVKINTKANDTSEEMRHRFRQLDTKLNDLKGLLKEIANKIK
Protocol notes: In vitro human TRPM8 functional assay (Ca2+ dye, FDSS, 100 nM icilin)
Measurement conditions: HEK293 cells transiently transfected with human TRPM8, read-out: hTRPM8 IC50
pIC50: −log10 of the molar value.
Endpoint: pIC50

>  <Structure>
CC(C)OP(=O)(OC(C)C)[C@@H](Cc1ccc(F)c(F)c1)c1sc2ccccc2c1Br

>  <Measurement>
10.27

$$$$
>  <Structure>
CC(C)OP(=O)(OC(C)C)[C@@H](Cc1ccc(F)c(C(F)(F)F)c1)c1sc2ccccc2c1Br

>  <Measurement>
10.31

$$$$

====

Target or system: canine TRPM8 (Canis lupus familiaris, UniProt Q1A7N1)
Construct: expressed in transfected cells
Sequence (Q1A7N1 1-1104): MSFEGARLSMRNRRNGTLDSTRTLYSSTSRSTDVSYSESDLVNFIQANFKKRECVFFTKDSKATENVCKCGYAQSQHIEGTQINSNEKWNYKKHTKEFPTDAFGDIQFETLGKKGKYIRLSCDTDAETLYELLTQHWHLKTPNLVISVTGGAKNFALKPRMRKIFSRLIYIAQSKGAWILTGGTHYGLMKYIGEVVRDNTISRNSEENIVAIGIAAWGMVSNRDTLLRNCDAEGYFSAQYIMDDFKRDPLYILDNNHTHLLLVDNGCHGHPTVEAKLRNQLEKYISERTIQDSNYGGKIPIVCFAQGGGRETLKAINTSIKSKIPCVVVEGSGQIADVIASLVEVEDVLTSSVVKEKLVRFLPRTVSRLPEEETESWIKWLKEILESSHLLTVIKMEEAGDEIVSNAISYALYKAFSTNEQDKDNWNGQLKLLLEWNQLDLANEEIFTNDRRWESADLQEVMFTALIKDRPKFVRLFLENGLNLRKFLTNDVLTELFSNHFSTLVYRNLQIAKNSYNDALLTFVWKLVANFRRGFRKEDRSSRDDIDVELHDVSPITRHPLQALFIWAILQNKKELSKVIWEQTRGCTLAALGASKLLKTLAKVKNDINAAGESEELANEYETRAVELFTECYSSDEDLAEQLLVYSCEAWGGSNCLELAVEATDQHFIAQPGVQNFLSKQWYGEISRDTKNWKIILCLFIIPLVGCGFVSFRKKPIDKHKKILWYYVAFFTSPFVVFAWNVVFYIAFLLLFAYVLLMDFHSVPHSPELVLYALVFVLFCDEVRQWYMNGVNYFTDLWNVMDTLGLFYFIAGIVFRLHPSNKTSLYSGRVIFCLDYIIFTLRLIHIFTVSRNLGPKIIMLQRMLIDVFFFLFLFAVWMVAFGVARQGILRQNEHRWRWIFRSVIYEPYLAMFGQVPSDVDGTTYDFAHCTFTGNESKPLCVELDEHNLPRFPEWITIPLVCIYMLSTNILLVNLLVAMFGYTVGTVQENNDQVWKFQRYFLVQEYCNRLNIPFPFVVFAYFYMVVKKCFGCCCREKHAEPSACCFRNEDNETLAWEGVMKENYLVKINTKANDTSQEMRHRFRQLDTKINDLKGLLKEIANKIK
Protocol notes: TRPM8 patch clamp assay (whole-cell, HEK293 cells)
Type: cell-based
Measurement conditions: IC50, mode of activation Menthol (100 μM), HEK293 cells stably transfected with canine TRPM8, 100 μM menthol, 22° C.
pIC50: −log10 of the molar value.
Endpoint: pIC50

>  <Compound>
CC(C)OP(=O)(OC(C)C)[C@@H](Cc1ccc(F)c(F)c1)c1sc2ccccc2c1Br

>  <Measurement>
8.33

$$$$
>  <Compound>
CC(C)OP(=O)(OC(C)C)C(Cc1ccc(F)c(C(F)(F)F)c1)c1sc2ccccc2c1Br (stereo not shown)

>  <Measurement>
8.80

$$$$
>  <Compound>
CC(C)OP(=O)(OC(C)C)[C@@H](Cc1ccc(F)c(C(F)(F)F)c1)c1sc2ccccc2c1Br

>  <Measurement>
9.40

$$$$
>  <Compound>
CC(C)OP(=O)(OC(C)C)[C@H](Cc1ccc(F)c(F)c1)c1sc2ccccc2c1Br

>  <Measurement>
7.23

$$$$

====

Target or system: canine TRPM8 (Canis lupus familiaris, UniProt Q1A7N1)
Construct: expressed in transfected cells
Protocol notes: In vitro canine TRPM8 functional assay (Ca2+-sensitive dye, FLIPR/FDSS, icilin activation)
Assay type: cell-based
Measurement conditions: HEK293 cells expressing canine TRPM8, icilin activation; eight-point dose-response; read-out: IC50
Form field: IC50 (one value per entry).

>  <Compound>
CCOP(=O)(OCC)C(Cc1cc(C(F)(F)F)cc(Cl)c1F)c1sc2ccccc2c1C (stereo not drawn)

>  <IC50, µM>
0.36

$$$$
>  <Compound>
CC(C)OP(=O)(OC(C)C)[C@H](Cc1ccc(F)c(F)c1)c1sc2ccccc2c1Br

>  <IC50, µM>
0.253

$$$$
>  <Compound>
CC(C)OP(=O)(OC(C)C)C(Cc1cccc(SC(F)(F)F)c1)c1sc2ccccc2c1Cl (stereo not drawn)

>  <IC50, µM>
0.058

$$$$
>  <Compound>
Cc1c(C(Cc2ccc(F)c(F)c2)P(=O)(OC2CCCCC2)OC2CCCCC2)sc2ccccc12 (stereo not drawn)

>  <IC50, µM>
0.75

$$$$
>  <Compound>
CCOP(=O)(OCC)C(Cc1ccccc1OC)c1sc2ccccc2c1Br (stereo not drawn)

>  <IC50, µM>
0.028

$$$$
>  <Compound>
CCOP(=O)(OCC)C(Cc1cccc(OC)c1F)c1sc2ccccc2c1Br (racemic)

>  <IC50, µM>
0.032

$$$$
>  <Compound>
CCOP(=O)(OCC)C(Cc1ccc(Cl)c(C(F)(F)F)c1)c1sc2ccccc2c1Br (stereo not drawn)

>  <IC50, µM>
0.06

$$$$
>  <Compound>
CCOP(=O)(OCC)C(Cc1cc(F)cc(Cl)c1)c1sc2ccccc2c1Cl (stereo not drawn)

>  <IC50, µM>
0.114

$$$$
>  <Compound>
CC(C)OP(=O)(OC(C)C)C(Cc1ccc(F)c(F)c1)c1sc2ncccc2c1Br (racemic)

>  <IC50, µM>
0.051

$$$$
>  <Compound>
CC(C)OP(=O)(OC(C)C)C(Cc1ccccc1F)c1sc2cccc(Br)c2c1Br (stereo not drawn)

>  <IC50, µM>
0.357

$$$$
>  <Compound>
CCOP(=O)(OCC)C(Cc1ccc(Cl)c(F)c1)c1sc2ccccc2c1Br (stereo not drawn)

>  <IC50, µM>
0.045

$$$$
>  <Compound>
CC(C)OP(=O)(OC(C)C)C(Cc1ccc(F)c(F)c1)c1sc2ccccc2c1C(C)C (stereo not drawn)

>  <IC50, µM>
0.068

$$$$
>  <Compound>
CC(C)OP(=O)(OC(C)C)C(Cc1ccc(Cl)c(F)c1)c1sc2ccccc2c1Cl (racemic)

>  <IC50, µM>
0.079

$$$$
>  <Compound>
CCOP(=O)(OCC)C(Cc1c(Cl)cccc1Cl)c1cc2ccccc2s1 (stereo not drawn)

>  <IC50, µM>
0.6

$$$$
>  <Compound>
CCOP(=O)(Cc1cc2ccccc2s1)OCc1ccccc1Br (stereo not drawn)

>  <IC50, µM>
2.32

$$$$
>  <Compound>
CC(C)OP(=O)(OC(C)C)C(Cc1ccc(Cl)cc1)c1sc2ccccc2c1Cl (stereo not drawn)

>  <IC50, µM>
0.112

$$$$
>  <Compound>
CCOP(=O)(OCC)C(Cc1cccc(Cl)c1Cl)c1cc2ccccc2s1 (stereo not drawn)

>  <IC50, µM>
0.73

$$$$
>  <Compound>
CCOP(=O)(OCC)C(Cc1ccc(SC)cc1)c1sc2ccccc2c1Cl (racemic)

>  <IC50, µM>
0.141

$$$$
